# PROCEDURE DETAILS: Plasma etelcalcetide pharmacokinetics, multiple-dose study
# Assay type: in vivo, human (Japanese hemodialysis patients with SHPT)
# EXPERIMENTAL PARAMETERS: human, plasma, iv, 5 mg, AUClast, M2, 5 mg i.v. 3 times weekly for 4 weeks, day 27, n = 8, mean ± SD
RECORDED METRIC: AUC(0-t) (ng·h/mL)
All answers are understood in ng·h/mL, so give the number only.

Recorded AUC(0-t) for CC(=O)N[C@H](CSSC[C@H](N)C(=O)O)C(=O)N[C@H](C)C(=O)N[C@H](CCCNC(=N)N)C(=O)N[C@H](CCCNC(=N)N)C(=O)N[C@H](CCCNC(=N)N)C(=O)N[C@H](C)C(=O)N[C@H](CCCNC(=N)N)C(N)=O [etelcalcetide, Etelcalcetide] , please?
3860

----------
# PROCEDURE DETAILS: Plasma etelcalcetide pharmacokinetics, single-dose study
# Format: in vivo, human (Japanese hemodialysis patients with SHPT)
# EXPERIMENTAL PARAMETERS: human, iv, 20 mg
RECORDED METRIC: Cmax (ng/mL)
All answers are understood in ng/mL, so give the number only.

Recorded Cmax for CC(=O)N[C@H](CSSC[C@H](N)C(=O)O)C(=O)N[C@H](C)C(=O)N[C@H](CCCNC(=N)N)C(=O)N[C@H](CCCNC(=N)N)C(=O)N[C@H](CCCNC(=N)N)C(=O)N[C@H](C)C(=O)N[C@H](CCCNC(=N)N)C(N)=O [etelcalcetide, Etelcalcetide] , please?
999

----------
# PROCEDURE DETAILS: Plasma etelcalcetide pharmacokinetics, multiple-dose study
# Format: in vivo, human (Japanese hemodialysis patients with SHPT)
# EXPERIMENTAL PARAMETERS: human, plasma, iv, 5 mg, Cmax, M2, 5 mg i.v. 3 times weekly for 4 weeks, day 27, n = 8, mean ± SD
RECORDED METRIC: Cmax (ng/mL)
All answers are understood in ng/mL, so give the number only.

Recorded Cmax for CC(=O)N[C@H](CSSC[C@H](N)C(=O)O)C(=O)N[C@H](C)C(=O)N[C@H](CCCNC(=N)N)C(=O)N[C@H](CCCNC(=N)N)C(=O)N[C@H](CCCNC(=N)N)C(=O)N[C@H](C)C(=O)N[C@H](CCCNC(=N)N)C(N)=O [etelcalcetide, Etelcalcetide] , please?
356

----------
# PROCEDURE DETAILS: Plasma etelcalcetide pharmacokinetics, multiple-dose study
# Format: in vivo, human (Japanese hemodialysis patients with SHPT)
# EXPERIMENTAL PARAMETERS: human, plasma, iv, 2.5 mg, AUClast, M1, 2.5 mg i.v. 3 times weekly for 4 weeks, day 1 (first administration), n = 8, mean ± SD
RECORDED METRIC: AUC(0-t) (ng·h/mL)
All answers are understood in ng·h/mL, so give the number only.

Recorded AUC(0-t) for CC(=O)N[C@H](CSSC[C@H](N)C(=O)O)C(=O)N[C@H](C)C(=O)N[C@H](CCCNC(=N)N)C(=O)N[C@H](CCCNC(=N)N)C(=O)N[C@H](CCCNC(=N)N)C(=O)N[C@H](C)C(=O)N[C@H](CCCNC(=N)N)C(N)=O [etelcalcetide, Etelcalcetide] , please?
600

----------
# PROCEDURE DETAILS: Plasma etelcalcetide pharmacokinetics, single-dose study
# Assay type: in vivo, human (Japanese hemodialysis patients with SHPT)
# EXPERIMENTAL PARAMETERS: human, iv, 5 mg
RECORDED METRIC: AUC(0-t) (ng·h/mL)
All answers are understood in ng·h/mL, so give the number only.

Recorded AUC(0-t) for CC(=O)N[C@H](CSSC[C@H](N)C(=O)O)C(=O)N[C@H](C)C(=O)N[C@H](CCCNC(=N)N)C(=O)N[C@H](CCCNC(=N)N)C(=O)N[C@H](CCCNC(=N)N)C(=O)N[C@H](C)C(=O)N[C@H](CCCNC(=N)N)C(N)=O [etelcalcetide, Etelcalcetide] , please?
1110

----------
# PROCEDURE DETAILS: Plasma etelcalcetide pharmacokinetics, single-dose study
# Format: in vivo, human (Japanese hemodialysis patients with SHPT)
# EXPERIMENTAL PARAMETERS: human, iv, 5 mg
RECORDED METRIC: Cmax (ng/mL)
All answers are understood in ng/mL, so give the number only.

Recorded Cmax for CC(=O)N[C@H](CSSC[C@H](N)C(=O)O)C(=O)N[C@H](C)C(=O)N[C@H](CCCNC(=N)N)C(=O)N[C@H](CCCNC(=N)N)C(=O)N[C@H](CCCNC(=N)N)C(=O)N[C@H](C)C(=O)N[C@H](CCCNC(=N)N)C(N)=O [etelcalcetide, Etelcalcetide] , please?
236

----------
# PROCEDURE DETAILS: Plasma etelcalcetide pharmacokinetics, multiple-dose study
# Assay type: in vivo, human (Japanese hemodialysis patients with SHPT)
# EXPERIMENTAL PARAMETERS: human, plasma, iv, 2.5 mg, AUClast, M1, 2.5 mg i.v. 3 times weekly for 4 weeks, day 27 (last administration), n = 7, mean ± SD
RECORDED METRIC: AUC(0-t) (ng·h/mL)
All answers are understood in ng·h/mL, so give the number only.

Recorded AUC(0-t) for CC(=O)N[C@H](CSSC[C@H](N)C(=O)O)C(=O)N[C@H](C)C(=O)N[C@H](CCCNC(=N)N)C(=O)N[C@H](CCCNC(=N)N)C(=O)N[C@H](CCCNC(=N)N)C(=O)N[C@H](C)C(=O)N[C@H](CCCNC(=N)N)C(N)=O [etelcalcetide, Etelcalcetide] , please?
1830

----------
# PROCEDURE DETAILS: Plasma etelcalcetide pharmacokinetics, multiple-dose study
# Type: in vivo, human (Japanese hemodialysis patients with SHPT)
# EXPERIMENTAL PARAMETERS: human, plasma, iv, 5 mg, AUClast, M2, 5 mg i.v. 3 times weekly for 4 weeks, day 1, n = 8, mean ± SD
RECORDED METRIC: AUC(0-t) (ng·h/mL)
All answers are understood in ng·h/mL, so give the number only.

Recorded AUC(0-t) for CC(=O)N[C@H](CSSC[C@H](N)C(=O)O)C(=O)N[C@H](C)C(=O)N[C@H](CCCNC(=N)N)C(=O)N[C@H](CCCNC(=N)N)C(=O)N[C@H](CCCNC(=N)N)C(=O)N[C@H](C)C(=O)N[C@H](CCCNC(=N)N)C(N)=O [etelcalcetide, Etelcalcetide] , please?
1200

----------
# PROCEDURE DETAILS: Plasma etelcalcetide pharmacokinetics, multiple-dose study
# Assay type: in vivo, human (Japanese hemodialysis patients with SHPT)
# EXPERIMENTAL PARAMETERS: human, plasma, iv, 2.5 mg, Cmax, M1, 2.5 mg i.v. 3 times weekly for 4 weeks, day 1 (first administration), n = 8, mean ± SD
RECORDED METRIC: Cmax

Recorded Cmax for CC(=O)N[C@H](CSSC[C@H](N)C(=O)O)C(=O)N[C@H](C)C(=O)N[C@H](CCCNC(=N)N)C(=O)N[C@H](CCCNC(=N)N)C(=O)N[C@H](CCCNC(=N)N)C(=O)N[C@H](C)C(=O)N[C@H](CCCNC(=N)N)C(N)=O [etelcalcetide, Etelcalcetide] , please?
151 ng/mL

----------
# PROCEDURE DETAILS: Plasma etelcalcetide pharmacokinetics, multiple-dose study
# Type: in vivo, human (Japanese hemodialysis patients with SHPT)
# EXPERIMENTAL PARAMETERS: human, plasma, iv, 5 mg, Cmax, M2, 5 mg i.v. 3 times weekly for 4 weeks, day 1, n = 8, mean ± SD
RECORDED METRIC: Cmax (ng/mL)
All answers are understood in ng/mL, so give the number only.

Recorded Cmax for CC(=O)N[C@H](CSSC[C@H](N)C(=O)O)C(=O)N[C@H](C)C(=O)N[C@H](CCCNC(=N)N)C(=O)N[C@H](CCCNC(=N)N)C(=O)N[C@H](CCCNC(=N)N)C(=O)N[C@H](C)C(=O)N[C@H](CCCNC(=N)N)C(N)=O [etelcalcetide, Etelcalcetide] , please?
315
